test system: c-Src; assay: phosphorylation enrichment, bacterial display (enrichment ratio); higher = better substrate or ligand; peptides without Tyr show the background
Metric name: phosphorylation enrichment
Just the number, please.

These recorded examples may help you get a feel for the data.
So, NTYEKYLEEEY [TF_Y669_G671E] ? Its phosphorylation enrichment was 0.9

So, PLDGEYFTPQI [TP53_Y327_L330P] ? Its phosphorylation enrichment was 0.434

Others:
So, GKGGSYSKAEW [HLA-E_Y341] ? Its phosphorylation enrichment was 0.375

So, AFGGGYGGVLT [KRT19_Y65_YF] ? Its phosphorylation enrichment was 0.38

---

biological target: c-Src SH2; assay: SH2 binding enrichment of the phosphorylated peptide, bacterial display (enrichment ratio); higher = better substrate or ligand; peptides without Tyr show the background;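 also: peptide library displayed on the E. coli surface as eCPX fusions, selected cells deep-sequenced, score is each peptide's frequency after selection divided by its frequency in the input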
Metric name: SH2 binding enrichment

These recorded examples may help you get a feel for the data.
So, GGGGSYNNFGN [HNRNPA1_Y312_D314N] ? Its SH2 binding enrichment was 0.43

So, IALSKYGRVKR [FGF6_Y186] ? Its SH2 binding enrichment was 0.501

So, SVGGLYRDMGA [CBX8_Y321_G317V] ? Its SH2 binding enrichment was 0.393

So, NNIDFYKKTTN [FGFR2_Y657_YF] ? Its SH2 binding enrichment was 0.515

So, PDGVEYLKNDP [GRIN3A_Y831] ? Its SH2 binding enrichment was 0.578

So, FPKDVYVDSKD [NDUFAF4_Y69_L65P] ? Its SH2 binding enrichment was 0.542

So, TEALFYTDDPA [ADPRS_Y75_T79P_YF] ? Its SH2 binding enrichment was 0.626

So, KELSSYKHLTL [SLIT2_Y776_N775S] ? Its SH2 binding enrichment was 0.481

So, RRAKGYPIDLY [ITGB2_Y125] ? Its SH2 binding enrichment was 0.466

So, ILGLEYSLRVP [HELZ2_Y1304] ? Its SH2 binding enrichment was 0.484

Others:
So, DKNSSYFADWL [TUBB8_Y340] ? Its SH2 binding enrichment was 0.766

So, PTTMTYFPHFD [HBA1_Y43_K41M] ? Its SH2 binding enrichment was 0.658

So, WDLPEYSFKDP [ITGA3_Y237_S235P_YF] ? Its SH2 binding enrichment was 0.502

So, GSERDYTFDEL [EIF2S2_Y174_E177D_YF] ? Its SH2 binding enrichment was 0.508

So, NTADFYDLFGG [PTPN11_Y63_G60A_YF] ? Its SH2 binding enrichment was 0.55

So, KDGNGYISAAE [CALM1_Y100] ? Its SH2 binding enrichment was 0.571

Where do these numbers come from? They come from the supplement of paper PMC10065799.
